Kindly state cell proliferation for each of the entries shown.
system: U2932 parental; test: cell proliferation relative to vehicle (% of vehicle); higher = less growth inhibition; conditions: 50 nM; 72 h
No unit in the answer, only the number.

## Task Reported cell proliferation for `Cn1cc(-c2ccc3c(c2)CCN3C(=O)Cc2cccc(C(F)(F)F)c2)c2c(N)ncnc21` : what is it?
## Result 101

## Task I am curious: what cell proliferation value has been reported for `Cn1cc(/C=C2\C(=O)Nc3cccnc32)c2ccccc21` ?
## Result 97.2

## Task Quick one: cell proliferation of COc1cc(OCc2cccc(-c3ccccc3)c2C)cc(OC)c1CN1CCCC[C@H]1C(=O)O [PD-1/PD-L1 inhibitor 1] ?
## Result 101

## Task Can you look up the measured cell proliferation of CCCS(=O)(=O)Nc1ccc(F)c(C(=O)c2c[nH]c3ncc(-c4ccc(Cl)cc4)cc23)c1F [Vemurafenib (PLX4032, RG7204)] for me?
## Result 101

---

test system: U2932 parental; assay: cell proliferation relative to vehicle (% of vehicle); higher = less growth inhibition; details: 500 nM; 72 h
VALUE_KIND: cell proliferation

## Task // returns reported cell proliferation for input Cc1cc(C(C)Nc2ccccc2)c2nc(N3CCOCC3)cc(=O)n2c1 (stereo not given)
## Result 92.9

## Task # cell proliferation lookup, item `C[C@@H](Oc1cc(-c2cnn(C3CCNCC3)c2)cnc1N)c1c(Cl)ccc(F)c1Cl`
## Result 56.5

## Task Any idea what its cell proliferation is? The molecule is `O=C(NOC[C@H](O)CO)c1ccc(F)c(F)c1Nc1ccc(I)cc1F`
## Result 91.5

## Task So what does the record say about cell proliferation for `O=C(/C=C/c1ccc2ccccc2n1)c1ccncc1` ?
## Result 89.1

## Task // query cell proliferation value for entry `CC(C)N(C[C@H]1O[C@@H](n2cnc3c(N)ncnc32)[C@H](O)[C@@H]1O)[C@H]1C[C@@H](CCc2nc3cc(C(C)(C)C)ccc3[nH]2)C1`
## Result 95.4

## Task Any idea what its cell proliferation is? The molecule is `NC(=O)c1ncn([C@@H]2O[C@H](CO)[C@@H](O)[C@H]2O)c1O`
## Result 102

## Task Look up cell proliferation for this molecule: CC1(C)CNc2cc(NC(=O)c3cccnc3NCc3ccncc3)ccc21 [Motesanib Diphosphate (AMG-706)]
## Result 93.9

## Task What does the data say about its cell proliferation? Entry: `COc1ccc(-c2ccc3c(N4CCOC[C@@H]4C)nc(N4CCOC[C@@H]4C)nc3n2)cc1CO`
## Result 35.1

## Task Sample COc1cc([C@@H]2c3cc4c(cc3[C@@H](O[C@@H]3O[C@@H]5CO[C@@H](c6cccs6)O[C@H]5[C@H](O)[C@H]3O)[C@H]3COC(=O)[C@H]23)OCO4)cc(OC)c1O [Teniposide] — what was its cell proliferation?
## Result 16.8

## Task Would you mind telling me what cell proliferation value was observed for `CO[C@@H](C)Cn1c(=O)n(C)c2cnc3ccc(-c4cncc(C(C)(C)O)c4)cc3c21` ?
## Result 33.6

---

test system: U2932 parental; test: cell proliferation relative to vehicle (% of vehicle); higher = less growth inhibition; conditions: 50 nM; 72 h
Counter-ions that a name gives are not always drawn.
VALUE_KIND: cell proliferation

## Task What reported cell proliferation corresponds to `COc1cc2ncnc(Oc3ccc(CC(=O)Nc4cnn(C(C)C)c4)cc3)c2cc1OC` on U2932 parental?
## Result 97.7

## Task Hello, I am looking for reported cell proliferation with U2932 parental for CCCC(CCC)C(=O)O [Valproic acid sodium salt (Sodium valproate)] . Could you help?
## Result 106

## Task Short answer please: cell proliferation, U2932 parental, entry `O=C(Nc1cc(C(F)(F)F)cc(C(F)(F)F)c1)c1cc(Cl)ccc1O`
## Result 102

---

Exercise: for every item that follows, state its recorded cell proliferation.
system: U2932 parental; experiment: cell proliferation relative to vehicle (% of vehicle); higher = less growth inhibition; settings: 500 nM; 72 h
Output spec: single numeric token, no unit.

## Task Which cell proliferation is listed for `C[C@@H](Oc1cc(-n2cnc3ccc(CN4CCN(C)CC4)cc32)sc1C(N)=O)c1ccccc1C(F)(F)F` ?
## Result 10.6

## Task Which cell proliferation value belongs to `S=C(NCc1ccc2c(c1)OCO2)N1CCN(c2ncnc3c2oc2ccccc23)CC1` ?
## Result 101

## Task Query: cell proliferation; subject: O=C1c2c(O)ccc(O)c2C(=O)c2c(NCCNCCO)ccc(NCCNCCO)c21 [Mitoxantrone]
## Result 8.11

## Task What value of measured cell proliferation is listed for `CC[C@H](NC(=O)[C@H](C)NC)C(=O)N1C[C@@H](O)C[C@H]1Cc1c(-c2[nH]c3cc(F)ccc3c2C[C@@H]2C[C@H](O)CN2C(=O)[C@H](CC)NC(=O)[C@H](C)NC)[nH]c2cc(F)ccc12` ?
## Result 101

## Task Please look up its cell proliferation: CCOC(=O)C1=C(N)Oc2ccc(Br)cc2C1C(C#N)C(=O)OCC (stereo not given)
## Result 97.6

## Task Requested read-out: cell proliferation. Entry: `Cc1nc(Nc2ncc(C(=O)Nc3c(C)cccc3Cl)s2)cc(N2CCN(CCO)CC2)n1`
## Result 60.9

## Task Any idea what cell proliferation was measured for `CC1(C)CCC(CN2CCN(c3ccc(C(=O)NS(=O)(=O)c4ccc(NCC5CCOCC5)c([N+](=O)[O-])c4)c(Oc4cnc5[nH]ccc5c4)c3)CC2)=C(c2ccc(Cl)cc2)C1` ?
## Result 66.9

## Task # cell proliferation lookup, item `CS(=O)(=O)c1cccc(CNc2nc(Nc3ccc4c(c3)CCC(=O)N4)ncc2C(F)(F)F)c1`
## Result 82.6

## Task Query: cell proliferation; subject: `O=C(NC[C@H](O)CO)c1ccncc1Nc1ccc(I)cc1F`
## Result 89.5

## Task Look at this compound and give its reported cell proliferation. `O=C(/C=C/c1cccc(S(=O)(=O)Nc2ccccc2)c1)NO`
## Result 41.8

---

test system: U2932 parental; experiment: cell proliferation relative to vehicle (% of vehicle); higher = less growth inhibition; settings: 50 nM; 72 h
VALUE_KIND: cell proliferation

## Task Which cell proliferation value is on record for COc1cc(Nc2ncc(F)c(Nc3ccc4c(n3)N(COP(=O)(O)O)C(=O)C(C)(C)O4)n2)cc(OC)c1OC [Fostamatinib (R788)] ?
## Result 96.7

## Task I am curious: what cell proliferation value has been reported for `O=C(c1cc(Cc2n[nH]c(=O)c3ccccc23)ccc1F)N1CCN(C(=O)C2CC2)CC1` ?
## Result 99.6

## Task Item `O=c1[nH]c(=O)n([C@H]2C[C@H](O)[C@@H](CO)O2)cc1F` has what recorded cell proliferation?
## Result 73.1

---

tested on: U2932 TK216-resistant clone 3; test: cell proliferation relative to vehicle (% of vehicle); higher = less growth inhibition; settings: 500 nM; 72 h
Counter-ions that a name gives are not always drawn.
Output 1 for cell proliferation not less than 100; output 0 otherwise.

## Task cell proliferation >= 100 for `N#C/C(=C(/N)Sc1ccc(N)cc1)c1ccccc1C(F)(F)F` ?
## Result 0

## Task Decide: is the reported value of cell proliferation for `O=C(/C=C/c1cccc(S(=O)(=O)Nc2ccccc2)c1)NO` equal to or greater than 100?
## Result 0

## Task Does cell proliferation meet or surpass 100 for `Nc1ccccc1NC(=O)c1ccc(CNC(=O)OCc2cccnc2)cc1` ?
## Result 0

## Task Determine whether this compound has cell proliferation no lower than 100: `O=c1cc(-c2cccc3c2Sc2ccccc2S3)oc(N2CCOCC2)c1`
## Result 0

## Task Kindly determine if cell proliferation recorded for `CCCS(=O)(=O)Nc1ccc(F)c(C(=O)c2c[nH]c3ncc(-c4ccc(Cl)cc4)cc23)c1F` is above or exactly 100.
## Result 1

## Task Confirm if cell proliferation reported for the compound `CCOc1ccc(Cc2cc([C@@H]3O[C@H](CO)[C@@H](O)[C@H](O)[C@H]3O)ccc2Cl)cc1` is 100 or above.
## Result 1

## Task Decide: cell proliferation of `FC(F)(F)c1ccc(/C=C/c2nc(COc3ccc(CCCCn4ccnn4)cc3)co2)cc1` >= 100?
## Result 0

## Task Item `CO[C@@H](C(=O)N1Cc2[nH]nc(NC(=O)c3ccc(N4CCN(C)CC4)cc3)c2C1)c1ccccc1` with cell proliferation of 100 or above?
## Result 0

## Task Quick check: does `COc1cc2c(cc1O)CC[C@@H]1[C@@H]2CC[C@]2(C)[C@@H](O)CC[C@@H]12` have cell proliferation greater than or equal to 100?
## Result 0

## Task Does cell proliferation meet or surpass 100 for `Cc1cc(N2CCOCC2)cc2[nH]c(-c3c(NC[C@@H](O)c4cccc(Cl)c4)cc[nH]c3=O)nc12` ?
## Result 0

## Task Decide: is the reported value of cell proliferation for `CC(C)NCCCn1c(Sc2cc3c(cc2I)OCO3)nc2c(N)ncnc21` equal to or greater than 100?
## Result 0

## Task Evaluate CCOC(=O)c1[nH]c2cc(Cl)ccc2c1C(C(=O)NC(C)(C)C)N(C=O)Cc1ccc(Cl)cc1 (configuration not stated) : cell proliferation at minimum 100?
## Result 0

## Task Record `Cn1cc(/C=C2\C(=O)Nc3cccnc32)c2ccccc21` ; criterion: cell proliferation no lower than 100. Met?
## Result 1

## Task Quick check, cell proliferation >= 100? C[S+]([O-])c1ccc(-c2nc(-c3ccc(F)cc3)c(-c3ccncc3)[nH]2)cc1 (configuration not stated)
## Result 0

## Task Please check the record `CC(=O)Nc1cccc(-n2c(=O)n(C3CC3)c(=O)c3c(Nc4ccc(I)cc4F)n(C)c(=O)c(C)c32)c1` and state if its cell proliferation is at or above 100.
## Result 0

## Task Hello, I need to know if CO[C@H]1/C=C\C=C(/C)C(=O)NC2=CC(=O)C(NCCN(C)C)=C(C[C@@H](C)C[C@H](OC)[C@H](O)[C@@H](C)/C=C(\C)[C@@H]1OC(N)=O)C2=O [17-DMAG (Alvespimycin) HCl] has measured cell proliferation not below 100. Thanks!
## Result 0

## Task Tell me whether cell proliferation is at least 100 here: `C[C@@H](Nc1cc(F)cc(F)c1)c1cc(C(=O)N(C)C)cc2c(=O)cc(N3CCOCC3)oc12`
## Result 0

## Task // inclusive: cell proliferation at least 100? input: `O=c1c(O)c(-c2ccc(O)c(O)c2)oc2cc(O)cc(O)c12`
## Result 1

## Task Please indicate if the recorded cell proliferation for `CCC[C@H](Nc1nc(-c2ccc(NC(=O)NCC)c(OC)c2)ncc1C)c1cccnc1` meets or exceeds 100.
## Result 0

## Task hey, is cell proliferation for this one >= 100? `Oc1ccc(/C=C/c2cc(O)cc(O)c2)cc1`
## Result 1

## Task Would you say `C=CC(=O)N1C/C(=C\c2ccc([N+](=O)[O-])cc2)C(=O)/C(=C/c2ccc([N+](=O)[O-])cc2)C1` shows cell proliferation at minimum 100?
## Result 0

## Task Is cell proliferation at least 100? Consider CC(C)CCN1c2nc(Nc3cc(F)c(O)c(F)c3)ncc2N(C)C(=O)C1C (configuration not stated)
## Result 0

## Task Confirm if cell proliferation reported for the compound CC/C(=C(\c1ccccc1)c1ccc(OCCN(C)C)cc1)c1ccccc1 [Tamoxifen Citrate] is 100 or above.
## Result 0

## Task Is cell proliferation for `Nc1nc(Nc2ccc(S(N)(=O)=O)cc2)nn1C(=O)c1c(F)cccc1F` at or above 100?
## Result 0
